experiment: yeast display, Sf9 membrane polyspecificity reagent, FACS + sequencing; frameworks hold sequencing errors
readout label: polyreactivity (PSR sort gate)

Here are 4 sequences together with their reported answers.
{"biosequence": "QVQLVESGGGLVQAGGSLRLICAASGRTFPYNTMGWYRQAPGKERELVAGISIRGSSTYYADSVKGRFTISRDNAKNTVYLQMNSLKPEDTAVYYCAKRYYGWYGNFDYWGQGTQVTVSS", "readout label": "polyreactivity (PSR sort gate)", "recorded result": "high polyreactivity"}
{"biosequence": "QVQLVESGGGLVQAGGSLRLSCAASGSTFGGYGMGWYRQAPGQERELVASISGGGNTNYADSVKGRFTISRDNAKNTVYLQKNSLKPEDTAVYYCNARINSWYSTYRYYYWGQGTQVTVSS", "readout label": "polyreactivity (PSR sort gate)", "recorded result": "low polyreactivity"}
{"biosequence": "QVQLVESGGGLVQAGGSLRLSCAASGSTFRYNAMGWYRQAPGKERELVAAISKSGGSTYYADSVKGRFTISRDNAKNTVYLQMNSLKPEDTAVYYCAAKAYINNYDYWGQGTQVTVSS", "readout label": "polyreactivity (PSR sort gate)", "recorded result": "high polyreactivity"}
{"biosequence": "QVQLVESGGGLVQAGGSLRISCAASGRTFGANAMGWYRQAPGKERELVAGITSSGGSTSYADSVKGRFTISRDNAKNTVYLQMNSLKPEDTAVYYCAKDVYQHIFDVILGGYDSWGQGTQVTVSS", "readout label": "polyreactivity (PSR sort gate)", "recorded result": "low polyreactivity"}

Would you kindly look at the next entry?
input: Reported polyreactivity (PSR sort gate) for `QVQLVESGGGLVQAGGSLRLSCAASGFTFELYDMGWYRQAPGKERELVARITRSGGSTNYADSVKGRFTISRDNAKNTVYLQMNSLKPEDTAVYYCAAKSPLFGLTSYPGPDDSWGQGTQVTVSS` : what is it?
output: low polyreactivity

---

assay: yeast display, Sf9 membrane polyspecificity reagent, FACS + sequencing; frameworks hold sequencing errors
readout label: polyreactivity (PSR sort gate)

{"biosequence": "QVQLVESGGGLVQAGGSLRLSCAASGSIFYFNAMGWYRPAPGKERELVAAINISGSSTSYADSVKGRFTISRDNAKNTVYLQMNSLKPEDTAVYYCAAEDEPRILIVRVWDYYWGQGTQVTVSS", "polyreactivity (PSR sort gate)": "low polyreactivity"}
{"biosequence": "QVQLVESGGGLVQAGGSLRLSCAASVRTFYRYAMGGYRQAPGKERELDAGISWRGGSTYYADSVKGRFTISRDNAKNTVYLQMNSLKPEDTAVYYCNAVTTPARTRLFKTVPYEYWGQGTQVTVSS", "polyreactivity (PSR sort gate)": "high polyreactivity"}
{"biosequence": "QVQLVESGGGLVQAGGSLRLSCAASGSTFYLNAMGWYRQAPGKERELVATKNSSGSTYNADSVKGRFTISRDNAKNTVYLQMNILKPEDTAVYYCNAYGSDRLSLDDYWGQGTQVTVSS", "polyreactivity (PSR sort gate)": "low polyreactivity"}
{"biosequence": "QVQLQESGGGLVQAGGSLRLSCAASGTISVHASMGWYRQAPGKERELVAGITDGANTYYADSVKGRFTISRDNSKNTVYLQMNSLIPEDTAVYYCAAYYGTEVHFTYWGQGTQVTVSS", "polyreactivity (PSR sort gate)": "low polyreactivity"}

input: Reported polyreactivity (PSR sort gate) for `QVQLVESGGGLVQAGGSLRLSCAASGGIFLVYTMGWYRQAPGKEREMVAAITSGGSTKYADSVKGRFTISRDNAKNTVYFQMNSLKPEDTAVYYCAAGVQYARYQARYFYWGQGTPVTVSS` : what is it?
output: high polyreactivity

input: Reported polyreactivity (PSR sort gate) for `QVQLVESGGGLVQAGGSLRLSCAASGLTLTYYAMGWYRQAAGKERELVAAISSSGGSTYYADSVKGRFTISRDNAKNTVYLQMNSLKPEDTAVYYCAATRVSWTGRDDYWGQGTQVTVSS` : what is it?
output: high polyreactivity

input: Reported polyreactivity (PSR sort gate) for `QVQLVESVGGLVQAGGSLRLSCAASGITFGYNAMGWYRQAPGKERELVASISYSGDSTYYADSVKGRFTISRDNAKNSVYLQMNSLKPEDTGVYYCAAGRQVLKRRYDYWGQGTQVTVSS` : what is it?
output: low polyreactivity

---

assay: yeast display, Sf9 membrane polyspecificity reagent, FACS + sequencing; frameworks hold sequencing errors
readout label: polyreactivity (PSR sort gate)

{"biosequence": "QVQLVESGGGLVQAGGSLRLSCAASGRTFHIYAMGWYRQAPGKERELLAAINYSGGSTYYADSVKGRFTISRDNAKNSVYLQMNSLKPEDTAVLYCAAVVYNVPWWFEYDYWGQGTQVTVSS", "readout label": "polyreactivity (PSR sort gate)", "recorded result": "low polyreactivity"}
{"biosequence": "QVQLVESGGGLVQAGGSLRLSCAASGITFYYYTMGWYRQAPGKERELVAGITYRGGRTYYADSVKGRFTISRDNAKNTVYLQMNSLKPEDTAVYYCAADDLGWWFYSGGEDYYYWGQGTQVTVSS", "readout label": "polyreactivity (PSR sort gate)", "recorded result": "low polyreactivity"}

---

experiment: yeast display, Sf9 membrane polyspecificity reagent, FACS + sequencing; frameworks hold sequencing errors
readout label: polyreactivity (PSR sort gate)

Here are 8 sequences together with their reported answers.
{"biosequence": "QVQLVESGGGLVQAGGSLRLSCAASGFTFVYYTMGWYRQAPGKERELVAAITSRGGNTYYADSVKGRFTISRDNAKNTVYLQMNSLKPEDTAVYYCAARRITTYYYWGQGTQVTVSS", "readout label": "polyreactivity (PSR sort gate)", "recorded result": "high polyreactivity"}
{"biosequence": "QVQLVESGGGLVQAGGSLRLSCAASGRTFVVNAMGWYRQAPGKERELVATIRWSGGRTYYADSVKGRFTISRDNAKNTVYLQMNSLKPEDTAVYYCAADFKGLFSSELDYWGQGTQVTVSS", "readout label": "polyreactivity (PSR sort gate)", "recorded result": "low polyreactivity"}
{"biosequence": "QVQLVESGGGLVQAGGSLRLSCAASGITFDSYAMGWYRQAPGKERELVAAISYSGGSTYYADSVKGRFTISRDNAKNTVYLQMNSLKPDDTAVYYCAAASDDDYDYWGQGTKVTVSS", "readout label": "polyreactivity (PSR sort gate)", "recorded result": "low polyreactivity"}
{"biosequence": "QVQLVESGGGLVQAGGSLRLSCAASGSIFYNYGMGWYRQAAGKEGELVAAIRASGDSTYYADSVKGRFTISRDNAKNTLYLQINSQKPEDTAVYYCAARPNQSYNGLYYYWGQGTQVTVSS", "readout label": "polyreactivity (PSR sort gate)", "recorded result": "low polyreactivity"}
{"biosequence": "QVQLVESGGGLVQAGGSLRLSCAASGSTFTVYAMGWYRQAPGKEREFVAAITPSGASTYYADSVKGRFTISRDNAKNTVYLQMNSLKPEDTAVYYCNARSRTGYTNRMYYWGQGTQVTVSS", "readout label": "polyreactivity (PSR sort gate)", "recorded result": "high polyreactivity"}
{"biosequence": "QVQIEESGGGLVQAGGSLRLSCAASGSTFGYYAMGWYRQAPGKERELVAAISRGGSTYYADSVKGRFTISRDIAKYTVYLQMHSLKPEDTAVYYCNAVRYLEYDWGQGTQVTVSS", "readout label": "polyreactivity (PSR sort gate)", "recorded result": "high polyreactivity"}
{"biosequence": "QLQLVESGGGLVQAGGSLRLSCAASGGIFGYYTMGSYRQAPGKEREFVAAITSRGGSTYYADSVKGRFTISRDTAKNTVYLQMNSLKPEDTAVYYCAARRQRDRYGYWGQGTQVTVSS", "readout label": "polyreactivity (PSR sort gate)", "recorded result": "high polyreactivity"}
{"biosequence": "QVQLVESGGGLVQAGGSLRLSCAASGSTFTLYAMGWYRQAPGKERELVATIDWSGGSTYYADSVKGRFTISRDNAKNTVYLQMNSLKPEDTAVYYCAADSYVVFYRGYTFIAVHSYEYWGQGTQVTVSS", "readout label": "polyreactivity (PSR sort gate)", "recorded result": "low polyreactivity"}

input: Reported polyreactivity (PSR sort gate) for `QVQLVESGGGLVQAGGSLRLSCAASGRIFQANAMGWYRQAPGKERELVASISSGGSTNYADSVKGRFTISRDNAKNTVYLQMNSLKPEDTAVYYCAARHPSSAYWVGYYWYDYWGQGTQVTVSS` : what is it?
output: low polyreactivity

input: Reported polyreactivity (PSR sort gate) for `HVQLVESGGGLVQAGGSLRLSCAASGSISAVNTMGWYRQAPGKERELVATISYSTASTYYADSVKGRFTISRDNAKNTVYLQMNSLKPEDTAVYYCAADAYFDTWYDYWGQGTQVTVSS` : what is it?
output: low polyreactivity

input: Reported polyreactivity (PSR sort gate) for `QVQLVESGGGLVQAGGSLRLSCAASGFIFRRYAMGWYRQAPGKERELVAAITAGGGNTYYADSVKGRFTISRDNAKNTVYLQMHSLKPEDTAVYYCAAAGRWYYHGYNYWGQGTQVTVSS` : what is it?
output: high polyreactivity
